# assayMethodText: chemical genetic growth profiling, strain panel (AID 1159580);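 note: tested at 20 µM; growth read once vehicle control cultures reached saturation at 30 °C; 1 = growth at the plate median or of vehicle wells; lower values mean less growth of the strain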
# testParameters: S. cerevisiae deletion strains, growth OD, locus YDL192W, strain arf1
Out of some 5,500 compounds screened, about 2,000 (36%) were called active. Inconclusive results (about 18%) are left out. Cut-off read from the data, not from the text of the source: active = normalized growth mostly below about 0.91 (no sharp cut-off); inconclusive = no clear call, values can overlap the other calls; inactive = mostly above about 0.92. The list shows a part of the results.
Return exactly one item of label 1 for active, label 0 for inactive

Query string: # lookup: test call for Nc1nc2c(ncn2C2C[C@H](O)[C@@H](CO)O2)c(=O)[nH]1 (stereo partly drawn)
Result string: label 1

Query string: # lookup: test call for `Cc1ccc2cc3c(ccc4ccccc43)c3c2c1CC3`
Result string: label 1

Query string: # lookup: test call for CSCCC(NC=O)C(=O)NC(C)C(=O)O (stereo not drawn)
Result string: label 0

Query string: # lookup: test call for `C[C@H](N)[C@H](O)c1ccc(O)c(O)c1`
Result string: label 0

Query string: # lookup: test call for `Cc1occc(=O)c1O`
Result string: label 0

Query string: # lookup: test call for O=c1[nH]c(=O)n(C2C[C@@H](O)[C@@H](CO)O2)cc1F (stereo partly drawn)
Result string: label 0

Query string: # lookup: test call for C=CC(C)(O)CC/C=C(\C)CCC=C(C)C (stereo not drawn)
Result string: label 0

Query string: # lookup: test call for `COC(C)(C)CCC[C@H](C)C/C=C/C(C)=C/C(=O)OC(C)C`
Result string: label 0

Query string: # lookup: test call for `C=C[C@](C)(O)CCC=C(C)C`
Result string: label 0

Query string: # lookup: test call for `Nc1ncnc2c1ncn2[C@@H]1O[C@H](CO)[C@@H](O)[C@H]1O`
Result string: label 0

Query string: # lookup: test call for `CC(=O)NCCCCCC(=O)O`
Result string: label 0

Query string: # lookup: test call for `CN[C@H](CC(=O)O)C(=O)O`
Result string: label 0

Query string: # lookup: test call for Nc1ncnc2c1ncn2C1C[C@H](O)[C@@H](CO)O1 (stereo partly drawn)
Result string: label 0

----------
# assayMethodText: chemical genetic growth profiling, strain panel (AID 1159580)
# testParameters: S. cerevisiae deletion strains, growth OD, locus YAR019C, strain CDC15, hits give low values
The campaign covered roughly 5,500 compounds. About 2,000 (36%) were called active. Another 18% or so got no clear call; they are omitted. This is one part of the list.
Provide the recorded normalized growth for the entries that follow.
# output: bare number, no unit

Query string: Output measured normalized growth for this item: `C/C(=C\c1ccc2c(c1)OCO2)[N+](=O)[O-]`
Result string: 0.0944

Query string: Output measured normalized growth for this item: `CSc1ccc(/C=C(\C)[N+](=O)[O-])cc1`
Result string: 0.0932

Query string: Output measured normalized growth for this item: OC(CNCc1ccc(Cl)cc1)CO/N=C\C1=C(Cl)c2cc(Cl)ccc2OC1 (stereo unspecified)
Result string: 0.962

Query string: Output measured normalized growth for this item: `O=[N+]([O-])/C=C/c1ccc(F)cc1`
Result string: 0.0937

Query string: Output measured normalized growth for this item: `CSc1cc(-c2ccncc2)nc(-c2cccs2)c1`
Result string: 0.953

Query string: Output measured normalized growth for this item: `CCOc1ccc(/C=C(\C)[N+](=O)[O-])cc1OC`
Result string: 0.976

Query string: Output measured normalized growth for this item: `CC(=O)Nc1ccc(/C=C/[N+](=O)[O-])cc1`
Result string: 0.977

Query string: Output measured normalized growth for this item: `Cc1cc(Br)ccc1-n1c(Sc2c([N+](=O)[O-])cc(C(F)(F)F)cc2[N+](=O)[O-])nc2ccccc2c1=O`
Result string: 0.99

Query string: Output measured normalized growth for this item: `O=[N+]([O-])c1ccccc1CS(=O)(=O)c1nc2ccccc2s1`
Result string: 0.862

Query string: Output measured normalized growth for this item: CC(C)c1ccc(NCC(O)CSc2ccccc2)cc1 (stereo unspecified)
Result string: 0.956

Query string: Output measured normalized growth for this item: `C=CCOc1ccc(/C=C/[N+](=O)[O-])cc1`
Result string: 0.0985

----------
Provide the recorded normalized growth for the entries that follow.
# assayMethodText: chemical genetic growth profiling, strain panel (AID 1159580);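 note: tested at 20 µM; growth read once vehicle control cultures reached saturation at 30 °C; 1 = growth at the plate median or of vehicle wells; lower values mean less growth of the strain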
# testParameters: S. cerevisiae deletion strains, growth OD, locus YNL250W, strain rad50, hits give low values
Out of some 5,500 compounds screened, about 2,000 (36%) were called active. Inconclusive results (about 18%) are left out. The list shows a part of the results.
# output: bare number, no unit

Query string: Output measured normalized growth for this item: Nc1ncnc2c1ncn2C1O[C@H](COP(=O)(O)O)[C@@H](O)[C@H]1O (stereo partly specified)
Result string: 1

Query string: Output measured normalized growth for this item: `CCC[C@H]1CC2=C(C[C@@H](CC)CC3=C1C(=O)OC3=O)C(=O)OC2=O`
Result string: 0.814

Query string: Output measured normalized growth for this item: `OC[C@@H](O)[C@@H](O[C@@H]1O[C@H](CO)[C@@H](O)[C@H](O)[C@H]1O)[C@H](O)[C@@H](O)CO`
Result string: 1.02

Query string: Output measured normalized growth for this item: `CCCCC1=NC2(CCCC2)C(=O)N1Cc1ccc(-c2ccccc2-c2nn[nH]n2)cc1`
Result string: 0.978

Query string: Output measured normalized growth for this item: Nc1nc2c(ncn2C2C[C@H](O)[C@@H](CO)O2)c(=O)[nH]1 (stereo partly specified)
Result string: 1.02

Query string: Output measured normalized growth for this item: Nc1ncnc2c1ncn2C1C[C@H](O)[C@@H](CO)O1 (stereo partly specified)
Result string: 0.987

Query string: Output measured normalized growth for this item: O=c1[nH]c(=O)n(C2C[C@@H](O)[C@@H](CO)O2)cc1F (stereo partly specified)
Result string: 1

Query string: Output measured normalized growth for this item: CCC(Cc1c(I)cc(I)c(N)c1I)C(=O)O (stereo unspecified)
Result string: 0.994

Query string: Output measured normalized growth for this item: `CC(=O)NCCCCCC(=O)O`
Result string: 0.992

Query string: Output measured normalized growth for this item: `CC(=O)Oc1ccc(Cl)c2cccnc12`
Result string: 0.127

Query string: Output measured normalized growth for this item: `Nc1nc2ncc(C(=O)O)nc2c(=O)[nH]1`
Result string: 1.03

----------
# assayMethodText: chemical genetic growth profiling, strain panel (AID 1159580);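 note: tested at 20 µM; growth read once vehicle control cultures reached saturation at 30 °C; 1 = growth at the plate median or of vehicle wells; lower values mean less growth of the strain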
# testParameters: S. cerevisiae deletion strains, growth OD, locus YGL227W, strain vid30, hits give low values
Hit rate of the full screen: of about 5,500 compounds, about 2,000 (36%) were called active. Inconclusive results (about 18%) are left out. The list shows a part of the results.
quantity: normalized growth
# output: bare number, no unit

Query string: Output measured normalized growth for this item: O=c1[nH]c(=O)n(C2C[C@@H](O)[C@@H](CO)O2)cc1F (stereo partly drawn)
Result string: 0.979

Query string: Output measured normalized growth for this item: Nc1ncnc2c1ncn2C1O[C@H](COP(=O)(O)O)[C@@H](O)[C@H]1O (stereo partly drawn)
Result string: 1.01

Query string: Output measured normalized growth for this item: `OC[C@@H](O)[C@@H](O[C@@H]1O[C@H](CO)[C@@H](O)[C@H](O)[C@H]1O)[C@H](O)[C@@H](O)CO`
Result string: 0.99

Query string: Output measured normalized growth for this item: COC(=O)C[C@H]1C(C)(C)C(=O)[C@@H]2CC3=C4CC(=O)O[C@@H](c5ccoc5)[C@]4(C)CCC3[C@@]1(C)C2=O (stereo partly drawn)
Result string: 1

Query string: Output measured normalized growth for this item: `Nc1ncnc2c1ncn2[C@@H]1O[C@H](CO)[C@@H](O)[C@H]1O`
Result string: 0.987

Query string: Output measured normalized growth for this item: `Nc1ncn([C@@H]2O[C@H](CO)[C@@H](O)[C@H]2O)c(=O)n1`
Result string: 0.983

Query string: Output measured normalized growth for this item: `NCCCC[C@H](N[C@@H](CCc1ccccc1)C(=O)O)C(=O)N1CCC[C@H]1C(=O)O`
Result string: 1.01

Query string: Output measured normalized growth for this item: CC(=O)O[C@@H]1C[C@@]2(C)[C@H](c3ccoc3)C[C@H]3O[C@]32[C@]2(C)C(=O)C(O)=C3C(C)(C)C(=O)C=C[C@]3(C)C12 (stereo partly drawn)
Result string: 0.964

----------
# assayMethodText: chemical genetic growth profiling, strain panel (AID 1159580);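 note: tested at 20 µM; growth read once vehicle control cultures reached saturation at 30 °C; 1 = growth at the plate median or of vehicle wells; lower values mean less growth of the strain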
# testParameters: S. cerevisiae deletion strains, growth OD, locus YKL068W
The campaign covered roughly 5,500 compounds. About 2,000 (36%) were called active. Another 18% or so got no clear call; they are omitted. No stated cut-off is given here; in the data, active means normalized growth mostly below about 0.91 (no sharp cut-off); inconclusive means no clear call, values can overlap the other calls; inactive means mostly above about 0.92. Some of the results follow.
Return exactly one item of active, inactive

Query string: # lookup: test call for `O=C1C=CC2=C3c4cc(O)c(O)cc4C[C@@]3(O)COC2=C1`
Result string: inactive

Query string: # lookup: test call for O=C1CCCC2C3CC(CN12)[C@@H]1CCCCN1C3 (some centres not stated)
Result string: inactive

Query string: # lookup: test call for C=CC(C)(O)CC/C=C(\C)CCC=C(C)C (configuration not stated)
Result string: inactive

Query string: # lookup: test call for C=CC(C1=CC(=O)C(OC)=CC1=O)c1ccc(OC)cc1 (configuration not stated)
Result string: inactive

Query string: # lookup: test call for C=CC(C1=CC(=O)C(OC)=CC1=O)c1ccc(O)cc1 (configuration not stated)
Result string: inactive

Query string: # lookup: test call for `CCCCC1(COC(=O)CCC(=O)O)C(=O)N(c2ccccc2)N(c2ccccc2)C1=O`
Result string: inactive

Query string: # lookup: test call for `C=C[C@](C)(O)CCC=C(C)C`
Result string: inactive

Query string: # lookup: test call for `Nc1ncnc2c1ncn2[C@@H]1O[C@H](CO)[C@@H](O)[C@H]1O`
Result string: inactive

Query string: # lookup: test call for Nc1nc2c(ncn2C2C[C@H](O)[C@@H](CO)O2)c(=O)[nH]1 (some centres not stated)
Result string: inactive

Query string: # lookup: test call for `C=C(C)[C@H]1CC=C(C(=O)O)CC1`
Result string: active

Query string: # lookup: test call for C1CCN2CC3CC(CN4CCCCC34)C2C1 (configuration not stated)
Result string: inactive

Query string: # lookup: test call for O=C1C=CC2=C3c4cc(O)c(O)cc4CC3(O)COC2=C1O (configuration not stated)
Result string: inactive
